Measured values drawn from patent US20180016324A1 for this set.

target: T1, ZIKV (prM80E) with a C-terminal myc-myc-hexahistidine tag (Zika virus, UniProt A0A024B7W1 104-694)
T1 construct: also called ZIKV (prM80E)-mmH; ZIKV-mmH
assay: SPR, mAb captured, 37C, pH 7.4
The entries below come with measured koff values attached.
Respond with the figure and its unit, in that order.

# binder, koff
records = [
    ("H4H25598P (antibody, V domains shown) VH: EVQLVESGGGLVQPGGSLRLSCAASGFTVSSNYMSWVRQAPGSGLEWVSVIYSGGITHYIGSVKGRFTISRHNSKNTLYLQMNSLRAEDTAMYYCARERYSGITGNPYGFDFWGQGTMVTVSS VL: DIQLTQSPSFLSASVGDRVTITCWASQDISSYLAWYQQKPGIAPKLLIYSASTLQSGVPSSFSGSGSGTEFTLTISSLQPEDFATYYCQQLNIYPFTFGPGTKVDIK", "0.000397 s⁻¹"),
]

# context switch: different binder, same koff
# input Using the record for H4H25641P (antibody, V domains shown) VH: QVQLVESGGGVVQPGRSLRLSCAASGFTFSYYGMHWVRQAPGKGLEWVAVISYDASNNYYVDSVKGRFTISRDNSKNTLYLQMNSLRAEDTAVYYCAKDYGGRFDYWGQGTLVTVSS VL: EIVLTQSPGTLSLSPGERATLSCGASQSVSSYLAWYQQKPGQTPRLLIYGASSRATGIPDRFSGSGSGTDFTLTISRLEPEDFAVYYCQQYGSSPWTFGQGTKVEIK , state its measured koff.
# output 0.0191 s⁻¹
